Tested on: SNB-75 CNS
test_summary: NCI-60 one-dose screen, 48 h (100 = growth as untreated, 0 = no growth, -100 = all killed)
recorded_conditions: 10 µM unless noted
Protocol: Growth inhibition of the SNB-75 human tumor cell line is measured as a screen for anti-cancer activity. Cells are grown in 96 well plates and exposed to the test compound for 48 hours. Compounds are tested at a single concentration, which is 10^-5 M for most compounds. The reported endpoint is percent growth (GI% or GIPRCNT), where numbers from 0 - 100% represent growth inhibition, and numbers from -100% - 0 represent cell death. For example, a value of 40 represents 60% growth inhibition. […]
Compounds without any hit were thinned out: in the full panel of roughly 83,000, 20% have a hit.
Listed next: entries and their corresponding growth.
property_name: growth (%)

O=C(Nc1cccc(-n2ccc3c(NC(=O)c4ccccc4)nccc32)c1)c1cccc(C(F)(F)F)c1 = 44.6
COc1ccc(/C=C/C(=O)c2ccc(NC(=O)CSc3nnc(-c4cc(OC)c(OC)c(OC)c4)o3)cc2)cc1 = -89.7
CCCCC(=O)Nc1nc2ccc(SCCC)cc2s1 = 33.2
COc1ccc(/C(Cl)=N/N=C(\Cl)c2cc(OC)c(OC)c(OC)c2)cc1OC(C)=O = 78.7
Cc1ccc(/C=C2/C(=O)Nc3cc(Cl)c(-c4csc(N)n4)cc32)cc1 = 52.4
CNCCCOc1c(Br)cc(CCNC(=O)/C(Cc2ccc(OC)c(Br)c2)=N/O)cc1Br = 50.6
COc1ccc2c(c1)C(=O)/C(=C/c1cccc(OCC(=O)c3ccccc3)c1)O2 = -8.04
Cc1cc(NCCN(C(C)C)C(C)C)nc(/N=C(\N)Nc2ccc(Cl)c(C(F)(F)F)c2)n1 = -100
Cc1nssc1=S = 92.3
O=S(=O)(CCN1CCOCC1)Nc1cncc(-c2ccc3ncnc(Nc4ccc(F)c(Cl)c4)c3c2)c1 = 56.3
CN(C)CC/C=C1\c2ccccc2Sc2ccc(Cl)cc21 = 52.4
CCc1c2cc(Cl)ccc2n2cc(Cc3ccccc3)[nH]c(=O)c12 = 96.9
O=C(/C=C/c1ccco1)c1cccc(Nc2nc(Nc3ccccc3)nc(Nc3ccccc3)n2)c1 = 60.2
O=C(Nc1ccc(-n2ccc3c(NC(=O)c4ccccc4)ncnc32)cc1)Nc1ccc(Cl)c(Cl)c1 = -5.84
CC(/C=C/C=C(\C)[C@H](O)[C@H](C)C(=O)O[C@H]1C[C@H](C)C=C2C=C[C@@]3(C)O[C@@H](O)CC(=O)[C@]3(C)[C@H]21)=C\C=C\C(=O)O = -14.2
COc1cc(NC(=O)c2cc(OC)c3ccn(C)c3c2)cc2c1C[C@]1(C)CC[C@@H](O)C(C)(C)[C@H]1O2 = 42.2
COc1ccc(OC)c(NCC(=O)n2nc(/C=C\c3ccc(O)c(OC)c3)cc2/C=C\c2ccc(O)c(OC)c2)c1 = 25.5
CC(=O)c1cc2c(c(O)c1C)C(=O)C(=O)c1c(O)cccc1-2 = -98.2
CCN(CC)c1ccc(C2CC(c3cc(OC)c(OC)c(OC)c3)=NN2)cc1 (centres undefined) = 18.7
CN(C)c1ccc(/C=N/N=C(N)N)cc1 = 66.5
O=C(Nc1cccc([N+](=O)[O-])c1)Nc1cccc([N+](=O)[O-])c1 = 107
CCc1c(C)c2cc3c(c(C)c2oc1=O)OCC(=O)N3 = 14.3
O=C(O)c1cn(C2CC2)c2cc(N3CCN(C(=O)CSc4nc(NS(=O)(=O)c5ccccc5)cc(=O)[nH]4)CC3)c(F)cc2c1=O = 98.8
Fc1cccc(F)c1C#Cc1ccc2cccnc2c1 = 97.8
COc1cc2ncn3c(=O)c4c5c(sc4nc3c2cc1OC)CCCCC5 = 73.2
CN(C)CCNc1nc2ccccc2c2c(=O)c3ccccc3sc12 = 30.6
CC1(C)N=C(N)N=C(N)N1c1cccc(CCCCc2ccccc2)c1 = -5.66
O=C(Nc1ccc(-n2ccc3c(NC(=O)c4ccccc4)nccc32)cc1)Nc1cccc(C(F)(F)F)c1 = 74.3
COc1cc(Br)c(-c2nc(-c3ccccc3)c(-c3ccccc3)n2Cc2ccccc2)cc1OC = 86.7
COc1ccc2c(c1)O/C(=C/c1ccc(OCC(=O)Nc3ccc(S(N)(=O)=O)cc3)cc1)C2=O = 89.8
S=C=NP1(N=C=S)=NP(N=C=S)(N=C=S)=NP(N=C=S)(N=C=S)=NP(N=C=S)(N=C=S)=N1 (centres undefined) = 80.7
Cc1cn(C2CC(N=[N+]=[N-])C(COP(=O)(O)OP(=O)(O)OP(=O)(O)O)O2)c(=O)[nH]c1=O (centres undefined) = 85.3
Cc1cccc(CC(=O)c2ccccc2)n1 = 84.6
C=C1C(=O)O[C@H]2[C@H]1CC/C(COC(=O)n1ccnc1C)=C\CC[C@@]1(C)O[C@@H]21 = 93.2
CC1CCc2cc(F)cc3c(=O)c(C(=O)O)cn1c23 (centres undefined) = 109
CC(C)(C)NCC(O)COc1c(Br)c(Br)c(Br)c2c1OC(C)(C)C2 (centres undefined) = 5.77
Cc1ccn2cc(Cc3cc(=O)oc4c3ccc3ccccc34)c(=O)nc2c1 = 81.4
CC(C)[C@@H]1NC(=O)[C@]2(C)CSC(=N2)c2ccnc(c2)CNC(=O)C[C@@H](/C=C/CCS)OC1=O = 25.8
COc1cc2nc(C(=O)N3CCCCC3)cc(Nc3ccccc3)c2cc1OC = 97.5

Values were extracted from PubChem BioAssay (NCI).
